# RUN_DESCRIPTION: Quantitative highthroughput screen to assess conditional lethalithy of SEM cells grown in RPMI1640 with dialyzed fetal bovine serum (RPMI+ds) (AID 1963884); further: nearly all actives have a fitted effect of over 35% in size; further: potency means the concentration at half of the fitted maximal effect
# EXPERIMENTAL_SETUP: SEM B-ALL cells, RPMI+dialyzed FBS, CellTiter-Glo viability, 48 h; series mostly up to 45.8 µM
Records with an inconclusive call do not appear. Calls of active or inactive are those of the source. The call rests on the fitted dose curve; in most records, active means well fitted cell-killing curve with a large enough effect; inconclusive means small, poorly fitted or top-dose-only effect, or effect the other way; inactive means no such curve, though single readings can be large or run the other way.
ATTRIBUTE_MEASURED: Potency

Here is how some compounds turned out for Potency.
What the record says about C[C@@H]1[C@@H](CC(C[C@H]2O[C@@H]3O[C@]4(C)CC[C@@H]5[C@H](C)CC[C@@H]([C@H]2C)[C@@]35OO4)C[S+](=O)([O-])c2ccc(COC(=O)N(C)C)cc2)O[C@@H]2O[C@]3(C)CC[C@H]4[C@H](C)CC[C@@H]1[C@@]24OO3 (some centres not stated) : Potency is 418 nM (active)

// Potency lookup, compound = CC[C@H]1C=CC=CC[C@@H](C)[C@H](O)[C@@](C)(O)C(=O)[C@@H](C)[C@H](O)[C@@H](C)C(=O)[C@@H](C)[C@H](O)[C@@H](C)C=CC(=O)O[C@@H]2[C@@H](C)[C@H](CC1)O[C@]1(CC[C@H](C)[C@H](C[C@@H](C)O)O1)[C@H]2C , result: 4690 nM (active)

Field Potency (entry CN[C@@H]1Cc2cccc3[nH]c(=O)n(c23)C1 ) reads inactive

// sample O=c1[nH]c2ccccc2n1CCCN1CCC(n2c(=O)[nH]c3cc(Cl)ccc32)CC1 , its Potency was inactive

// field: Potency; key: O=[N+]([O-])c1ncc[nH]1 ; value = inactive

Record Potency per entry; entries follow.
1. CCNC(=O)C[C@@H]1N=C(c2ccc(Cl)cc2)c2cc(OC)ccc2-n2c(C)nnc21
2. Cc1[nH]nc2ccc(-c3cncc(OC[C@@H](N)Cc4c[nH]c5ccccc45)c3)cc12

Output:
1: 1050 nM (active); 2: 418 nM (active)
